Target: P2X purinoceptor 1 (Homo sapiens) (UniProt P51575)
Sequence (P51575 whole entry): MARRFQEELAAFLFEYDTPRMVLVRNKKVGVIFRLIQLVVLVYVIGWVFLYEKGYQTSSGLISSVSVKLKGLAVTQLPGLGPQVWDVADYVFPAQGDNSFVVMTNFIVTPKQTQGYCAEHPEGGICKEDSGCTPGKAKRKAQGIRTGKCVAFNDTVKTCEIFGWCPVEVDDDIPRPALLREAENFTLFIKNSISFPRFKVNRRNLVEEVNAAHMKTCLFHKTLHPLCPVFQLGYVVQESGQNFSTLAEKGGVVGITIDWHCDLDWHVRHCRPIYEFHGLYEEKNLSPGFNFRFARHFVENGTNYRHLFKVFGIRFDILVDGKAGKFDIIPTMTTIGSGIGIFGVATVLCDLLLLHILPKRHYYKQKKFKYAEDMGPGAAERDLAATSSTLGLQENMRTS
Assay: Antagonist activity at non-desensitizing human P2X1 receptor ( P2X2/P2X1 chimera) expressed in human 1321N1 cells assessed as inhibition of ATP-induced calcium influx at 10 uM pre-incubated for 30 mins before ATP stimulation by FLIPR assay relative to control
Assay type: cell-based
Quantity kind: inhibition (%)
Answer in %, number only, no unit symbol.

Data request, read-out inhibition, for O=C(Nc1cccc(C(F)(F)F)c1)c1ccccc1O [SALFLUVERINE]
75

Data request, read-out inhibition, for O=C(Nc1cc(C(=O)Nc2ccc(S(=O)(=O)O)cc2S(=O)(=O)O)cc(C(=O)Nc2ccc(S(=O)(=O)O)cc2S(=O)(=O)O)c1)Nc1cc(C(=O)Nc2ccc(S(=O)(=O)O)cc2S(=O)(=O)O)cc(C(=O)Nc2ccc(S(=O)(=O)O)cc2S(=O)(=O)O)c1
100

Data request, read-out inhibition, for O=C(Nc1cc(C(F)(F)F)cc(C(F)(F)F)c1)c1ccccc1Cl
100

Data request, read-out inhibition, for O=C(Nc1ccc2ncccc2c1)c1ccccc1O
28

Data request, read-out inhibition, for O=C(Nc1cc([N+](=O)[O-])cc(C(F)(F)F)c1)c1cc(Cl)ccc1O
81

Data request, read-out inhibition, for O=C(NCc1cc(C(F)(F)F)cc(C(F)(F)F)c1)c1cc(Cl)ccc1O
111
